Hello, the source for this data is patent US7829572B2, in case you need it.

target: calcium receptor (CasR) (Homo sapiens); experiment: FLIPR Assay for Evaluating the Potency and Selectivity of Test Compounds; conditions: HEK 293 cells expressing CasR; 30 minutes pre-incubation; stimulation by 1.7 mM Ca2+; read 42 seconds after stimulation
parameter measured: IC50 (nM)

The examples below pair each entry with its known result.
- compound: "O=c1c2c(C(F)(F)F)nccc2nc(-c2cscn2)n1CCc1ccccc1"
  target entity: "calcium receptor (CasR) (Homo sapiens)"
  reading unit: "nM"
  val: 710
- compound: "O=c1c2c(C(F)(F)F)nccc2nc(-c2ncccc2O)n1C1CCCCC1"
  target entity: "calcium receptor (CasR) (Homo sapiens)"
  reading unit: "nM"
  val: 47800

1 = O=c1c2c(C(F)(F)F)nccc2nc(-c2ncccc2O)n1CCC1CCCCO1 (racemic)
2 = COc1ccccc1CCn1c(-c2ncccc2O)nc2ccnc(C(F)(F)F)c2c1=O
Returns: the argument ( 1 or 2 ) having the larger IC50. Please identify the chosen entry by its label.
1

====

Molecular target: calcium receptor (CasR) (Homo sapiens)
Sequence (P41180 20-1078): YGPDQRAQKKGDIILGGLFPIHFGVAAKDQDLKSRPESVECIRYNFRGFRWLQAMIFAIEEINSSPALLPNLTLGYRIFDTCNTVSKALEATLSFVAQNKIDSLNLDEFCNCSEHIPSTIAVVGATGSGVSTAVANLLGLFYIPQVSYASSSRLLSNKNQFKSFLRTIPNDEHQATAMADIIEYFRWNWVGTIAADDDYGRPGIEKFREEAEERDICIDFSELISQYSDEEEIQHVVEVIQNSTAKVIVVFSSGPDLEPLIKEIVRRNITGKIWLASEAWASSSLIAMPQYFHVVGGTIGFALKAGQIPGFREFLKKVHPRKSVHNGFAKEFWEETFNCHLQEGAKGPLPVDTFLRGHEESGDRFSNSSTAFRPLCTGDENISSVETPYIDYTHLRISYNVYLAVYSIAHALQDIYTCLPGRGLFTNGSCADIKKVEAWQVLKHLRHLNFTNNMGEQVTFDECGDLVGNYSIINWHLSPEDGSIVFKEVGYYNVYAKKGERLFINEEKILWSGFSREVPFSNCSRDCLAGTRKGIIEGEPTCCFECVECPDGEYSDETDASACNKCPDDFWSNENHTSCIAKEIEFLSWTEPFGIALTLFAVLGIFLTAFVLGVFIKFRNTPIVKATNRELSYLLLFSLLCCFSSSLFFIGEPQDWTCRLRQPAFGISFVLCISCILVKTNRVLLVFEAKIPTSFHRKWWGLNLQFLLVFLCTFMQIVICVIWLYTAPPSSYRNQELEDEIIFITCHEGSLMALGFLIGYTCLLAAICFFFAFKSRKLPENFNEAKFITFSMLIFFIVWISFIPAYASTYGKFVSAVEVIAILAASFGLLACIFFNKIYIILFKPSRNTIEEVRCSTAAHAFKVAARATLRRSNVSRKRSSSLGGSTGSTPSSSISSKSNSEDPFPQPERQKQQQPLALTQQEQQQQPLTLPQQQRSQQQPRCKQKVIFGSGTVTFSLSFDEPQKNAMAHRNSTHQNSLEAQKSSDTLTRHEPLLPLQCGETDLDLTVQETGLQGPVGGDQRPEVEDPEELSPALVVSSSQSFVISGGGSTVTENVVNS
Test: FLIPR Assay for Evaluating the Potency and Selectivity of Test Compounds
Details: HEK 293 cells expressing CasR; 30 minutes pre-incubation; stimulation by 1.7 mM Ca2+; read 42 seconds after stimulation
parameter measured: IC50 (nM)

The examples below pair each entry with its known result.
- compound: "COc1ccc(F)cc1CCn1c(-c2ncccc2O)nc2ccnc(C(F)(F)F)c2c1=O [Example 41]"
  val: 250
- compound: "C[C@H](Cc1ccccc1)n1c(-c2ncccc2O)nc2ccnc(C(F)(F)F)c2c1=O [Example 5]"
  val: 20
- compound: "CCCOc1nccc2nc(-c3ccccc3O)n(CCc3ccccc3)c(=O)c12 [Example 32]"
  val: 570
- compound: "C[C@H](Cc1ccc(F)c(F)c1)n1c(-c2ncccc2O)nc2ccnc(C(F)(F)F)c2c1=O [Example 37a]"
  val: 8
- compound: "C[C@H](Cc1ccccc1)n1c(-c2cscn2)nc2ccnc(C(F)(F)F)c2c1=O [Example 53]"
  val: 260

a = O=c1c2c(C(F)(F)F)nccc2nc(-c2ccccc2C(F)(F)F)n1CCC1CCCCC1 [Example 81]
b = Cc1cc(-c2nccc3nc(-c4ccccc4O)n(CCc4ccccc4)c(=O)c23)cnc1N(C)C [Example 28]
Lower value for measured IC50? Options: a , b Please identify the chosen entry by its label.
b
(b: 4830 nM, a: 7890 nM)

====

biological target: calcium receptor (CasR) (Homo sapiens, UniProt P41180); assay: FLIPR Assay for Evaluating the Potency and Selectivity of Test Compounds; conditions: HEK 293 cells expressing CasR; 30 minutes pre-incubation; stimulation by 1.7 mM Ca2+; read 42 seconds after stimulation
pIC50: −log10 of the molar value.
parameter measured: pIC50

- molecule: "O=c1c2c(-c3ccc(N4CCCC4)nc3)nccc2nc(-c2ccccc2O)n1CCc1ccccc1 [Example 29]"
  pIC50: 6.31

P = O=c1c2c(N3CCCC3)nccc2nc(-c2ccccc2O)n1CCc1ccccc1 [Example 18]
Q = O=c1c2c(C(F)(F)F)nccc2nc(-c2ncccc2O)n1CCc1ccccc1 [Example 3]
Returns: the argument ( P or Q ) having the larger pIC50. Please identify the chosen entry by its label.
Q
(Q: 6.41, P: 4.91)

1 = O=c1c2c(N3CCC3)nccc2nc(-c2ccccc2O)n1CCc1ccccc1 [Example 23]
2 = C[C@H](Cc1ccccc1)n1c(-c2cccc(F)c2O)nc2ccnc(C(F)(F)F)c2c1=O [Example 50]
Lower value for measured pIC50? Options: 1 , 2 Please identify the chosen entry by its label.
1
(1: 4.86, 2: 7.52)

1 = CC(C)c1nc2ccnc(C(F)(F)F)c2c(=O)n1CCc1ccccc1 [Example 58]
2 = O=c1c2c(C(F)(F)F)nccc2nc(-c2cccc(F)c2O)n1CCc1ccccc1F [Example 9]
3 = O=c1c2c(C(F)(F)F)nccc2nc(C2CCCC2)n1CCc1ccccc1 [Example 59]
Rank ascending by pIC50. Your task in answering is to list the labels in the requested order.
3, 1, 2
(3: 5.11, 1: 5.33, 2: 6.54)

A = C[C@H](Cc1ccccc1)n1c(C2CCCC2)nc2ccnc(C(F)(F)F)c2c1=O [Example 57]
B = O=c1c2c(C(F)(F)F)nccc2nc(-c2cscn2)n1CCC1CCCCC1 [Example 61]
Returns: the argument ( A or B ) having the larger pIC50. Please identify the chosen entry by its label.
B

====

biological target: calcium receptor (CasR) (Homo sapiens, UniProt P41180); experiment: FLIPR Assay for Evaluating the Potency and Selectivity of Test Compounds; settings: HEK 293 cells expressing CasR; 30 minutes pre-incubation; stimulation by 1.7 mM Ca2+; read 42 seconds after stimulation
parameter measured: IC50 (µM)

- molecule: "O=c1c2c(C(F)(F)F)nccc2nc(-c2ccccc2O)n1CCc1ccccc1"
  target entity: "calcium receptor (CasR) (Homo sapiens, UniProt P41180)"
  IC50 (µM): 0.05
- molecule: "COc1cccc(CCn2c(-c3ncccc3O)nc3ccnc(C(F)(F)F)c3c2=O)c1F"
  target entity: "calcium receptor (CasR) (Homo sapiens, UniProt P41180)"
  IC50 (µM): 61.9
- molecule: "Nc1scnc1-c1nc2ccnc(C(F)(F)F)c2c(=O)n1CCc1ccccc1"
  target entity: "calcium receptor (CasR) (Homo sapiens, UniProt P41180)"
  IC50 (µM): 9.83
- molecule: "C[C@H](Cc1ccccc1)n1c(-c2ncccc2NC(=O)C(F)(F)F)nc2ccnc(C(F)(F)F)c2c1=O"
  target entity: "calcium receptor (CasR) (Homo sapiens, UniProt P41180)"
  IC50 (µM): 0.2
- molecule: "O=c1c2c(C(F)(F)F)nccc2nc(-c2ccccc2O)n1CCc1cccc(F)c1"
  target entity: "calcium receptor (CasR) (Homo sapiens, UniProt P41180)"
  IC50 (µM): 0.09

A = Cc1cc2nc(-c3ccccc3O)n(CCc3ccccc3)c(=O)c2c(C(F)(F)F)n1
B = COc1ccc(F)c(CCn2c(-c3ncccc3O)nc3ccnc(C(F)(F)F)c3c2=O)c1
C = CC(Cc1ccccc1F)n1c(-c2ncccc2O)nc2ccnc(C(F)(F)F)c2c1=O (single isomer, unassigned) [Example 6b]
D = O=c1c2c(C(F)(F)F)nccc2nc(-c2ncccc2O)n1CCc1ccccc1F
E = O=c1c2c(C(F)(F)F)nccc2nc(-c2ncccc2O)n1CCC1CCCCC1
Sort the 5 molecules by IC50; largest first, smallest last. Your task in answering is to list the labels in the requested order.
B, C, D, A, E

====

target: calcium receptor (CasR) (Homo sapiens, UniProt P41180); assay: FLIPR Assay for Evaluating the Potency and Selectivity of Test Compounds; details: HEK 293 cells expressing CasR; 30 minutes pre-incubation; stimulation by 1.7 mM Ca2+; read 42 seconds after stimulation
parameter measured: IC50 (nM)

- compound: "O=c1c2c(C(F)(F)F)nccc2nc(-c2cccc(F)c2O)n1CCc1cccc(F)c1"
  IC50 (nM): 460

P = O=c1c2c(C(F)(F)F)nccc2nc(-c2ncccc2O)n1CCC1CCCC1
Q = CC(Cc1ccccc1F)n1c(-c2cscn2)nc2ccnc(C(F)(F)F)c2c1=O (centres unmarked)
Returns: the argument ( P or Q ) having the larger IC50. Please identify the chosen entry by its label.
Q
